Molecular target: thrombin (bovine alpha-thrombin) (bovine)
Assay: SPR
Bridge positions count the residues as written; N and C are the ends.
Reported Kd values follow for various binders

- binder: "M-Hir (M-hirudin-HN-His tag) (natural protein, disulfide 7-15, 17-29, 23-39) MNRYSVCTETGQNLCLCEGSDLCSLDNHCEIGSNGKNRCVKGEGKPKKPQSNSDLPEEKYEPIPIEDYDK"
  outputUnit: "nM"
  Kd: 2970
- binder: "mature hirudin-HN protein (Hir) (natural protein) NRYSVCTETGQNLCLCEGSDLCSLDNHCEIGSNGKNRCVKGEGKPKKPQSNSDLPEEKYEPIPIEDYDK"
  outputUnit: "nM"
  Kd: 64.7
